Please respond with reported interaction score for every item in the list.
Biological target: T1, 4H3129-bA
T1 chain: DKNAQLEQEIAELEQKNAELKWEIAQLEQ
Experiment: two-hybrid library CCNG1;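 note: natural log of median RNA to DNA barcode read ratio; higher means stronger binding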
Respond with the number and no other words.

What does the data say about its interaction score? Entry: DENAQLKQEIAELKQENAELKWKIAQLEQ [4H1629-bA]
0.102

Then what about the binder DENAQLEQKNAELEQKIAELKWEIAQLEQ [4H1449-bA] ?
-0.874

Then what about the binder DENAQLEQENAELKQEIAELEWKIAQLKQ [4H1222-bA] ?
-1.85

Then what about the binder DENAQLEQKIAELKQKNAELEWEIAQLEQ [4H1393-bA] ?
-0.0989

Then what about the binder DENAQLEQKIAELKQEIAELKWKNAQLEQ [4H1359-bA] ?
-0.77
